Assay: activity coefficient (dimensionless); of the first substance listed, at infinite dilution; xn = mol fraction of the nth substance listed
Settings: 433.15 K; 101 kPa; Liquid; Chromatography; x1 = 0
# activity coefficient values compiled below

For orientation, consider the following solved cases.
Supply measured activity coefficient of CCCCCC [hexane] + CCCCCCCCCCCCCCCCCCC(CCCCCCCCCCCCCCCCCC)CCCCC(CCCCCCCCCCCCCCCCCC)CCCCCCCCCCCCCCCCCC in your reply.
0.355

Note down activity coefficient recorded for C1=CCCC=C1 [1,3-cyclohexadiene] + CCCCCCCCCCCCCCCCCCC(CCCCCCCCCCCCCCCCCC)CCCCC(CCCCCCCCCCCCCCCCCC)CCCCCCCCCCCCCCCCCC
0.252

Please indicate activity coefficient recorded for C[C@@H]1CCCC[C@H]1C [trans-1,2-dimethylcyclohexane] + CCCCCCCCCCCCCCCCCCC(CCCCCCCCCCCCCCCCCC)CCCCC(CCCCCCCCCCCCCCCCCC)CCCCCCCCCCCCCCCCCC
0.295

For CCC#CCC [3-hexyne] + CCCCCCCCCCCCCCCCCCC(CCCCCCCCCCCCCCCCCC)CCCCC(CCCCCCCCCCCCCCCCCC)CCCCCCCCCCCCCCCCCC , write its activity coefficient.
0.419

***
Provide only the value of recorded activity coefficient for C1CCC2CCCC2C1 (stereo not given) [1H-indene, octahydro-] + CCCCCCCCCCCCCCCCCCC(CCCCCCCCCCCCCCCCCC)CCCCC(CCCCCCCCCCCCCCCCCC)CCCCCCCCCCCCCCCCCC
0.27

---

activity coefficient values, listed per item
Assay: activity coefficient (dimensionless); of the first substance listed, at infinite dilution; xn = mol fraction of the nth substance listed
Conditions: 403.15 K; 101 kPa; Liquid; Chromatography; x1 = 0
I only need the number, thanks.

Consider the compound C1CC[C@H]2CCCC[C@@H]2C1 [trans-decahydronaphthalene] + CCCCCCCCCCCCCCCCCCC(CCCCCCCCCCCCCCCCCC)CCCCC(CCCCCCCCCCCCCCCCCC)CCCCCCCCCCCCCCCCCC and give its recorded activity coefficient.
0.283

State, in one line, measured activity coefficient of CCC#CCC [3-hexyne] + CCCCCCCCCCCCCCCCCCC(CCCCCCCCCCCCCCCCCC)CCCCC(CCCCCCCCCCCCCCCCCC)CCCCCCCCCCCCCCCCCC
0.406

Give reported activity coefficient value for CCCCCCCCCCCCCC [tetradecane] + CCCCCCCCCCCCCCCCCCC(CCCCCCCCCCCCCCCCCC)CCCCC(CCCCCCCCCCCCCCCCCC)CCCCCCCCCCCCCCCCCC
0.494

---

Assay: activity coefficient (dimensionless); of the first substance listed, at infinite dilution; xn = mol fraction of the nth substance listed
Conditions: 433.15 K; 101 kPa; Liquid; Chromatography; x1 = 0
Label fulfilled when activity coefficient < 0.4; otherwise not fulfilled.

The following compounds have reported results that may help.
Hello, is activity coefficient of the following compound strictly smaller than 0.4? CCC(C)C(C)CC (stereo unspecified) [3,4-dimethylhexane] + CCCCCCCCCCCCCCCCCCC(CCCCCCCCCCCCCCCCCC)CCCCC(CCCCCCCCCCCCCCCCCC)CCCCCCCCCCCCCCCCCC
fulfilled

I'd appreciate it if you could check whether C1=CCC=CC1 [1,4-cyclohexadiene] + CCCCCCCCCCCCCCCCCCC(CCCCCCCCCCCCCCCCCC)CCCCC(CCCCCCCCCCCCCCCCCC)CCCCCCCCCCCCCCCCCC has activity coefficient smaller than 0.4.
fulfilled

Say whether its activity coefficient is strictly beneath 0.4. Entry: CCCCCc1ccccc1 [pentylbenzene] + CCCCCCCCCCCCCCCCCCC(CCCCCCCCCCCCCCCCCC)CCCCC(CCCCCCCCCCCCCCCCCC)CCCCCCCCCCCCCCCCCC
fulfilled

Problem: For the compound C=CCCCC [hex-1-ene] + CCCCCCCCCCCCCCCCCCC(CCCCCCCCCCCCCCCCCC)CCCCC(CCCCCCCCCCCCCCCCCC)CCCCCCCCCCCCCCCCCC , is activity coefficient under 0.4?
fulfilled

Is activity coefficient strictly under 0.4 for the entry CCCCCCCCCCC [undecane] + CCCCCCCCCCCCCCCCCCC(CCCCCCCCCCCCCCCCCC)CCCCC(CCCCCCCCCCCCCCCCCC)CCCCCCCCCCCCCCCCCC ?
not fulfilled

Find out if reported activity coefficient for C[C@H]1CC[C@@H](C)CC1 [cis-1,4-dimethylcyclohexane] + CCCCCCCCCCCCCCCCCCC(CCCCCCCCCCCCCCCCCC)CCCCC(CCCCCCCCCCCCCCCCCC)CCCCCCCCCCCCCCCCCC is less than 0.4
fulfilled

Next compound, please.
activity coefficient under 0.4? Item: CCCCCCCCCC [decane] + CCCCCCCCCCCCCCCCCCC(CCCCCCCCCCCCCCCCCC)CCCCC(CCCCCCCCCCCCCCCCCC)CCCCCCCCCCCCCCCCCC
not fulfilled

---

Each entry below carries its reported activity coefficient.
Test: activity coefficient (dimensionless); of the first substance listed, at infinite dilution; xn = mol fraction of the nth substance listed
Settings: 373.15 K; 101 kPa; Liquid; Chromatography; x1 = 0
Lab note: record the figure alone, no unit after it.

Give me measured activity coefficient, please, for this compound: C#CCCCCC [1-heptyne] + CCCCCCCCCCCCCCCCCCC(CCCCCCCCCCCCCCCCCC)CCCCC(CCCCCCCCCCCCCCCCCC)CCCCCCCCCCCCCCCCCC
0.411

More entries:
// Input: C1=CCC=CC1 [1,4-cyclohexadiene] + CCCCCCCCCCCCCCCCCCC(CCCCCCCCCCCCCCCCCC)CCCCC(CCCCCCCCCCCCCCCCCC)CCCCCCCCCCCCCCCCCC . Output its activity coefficient only.
0.242

Entry C=CCCCCCC [oct-1-ene] + CCCCCCCCCCCCCCCCCCC(CCCCCCCCCCCCCCCCCC)CCCCC(CCCCCCCCCCCCCCCCCC)CCCCCCCCCCCCCCCCCC needs its activity coefficient filled in; supply it.
0.374

Supply recorded activity coefficient for CC#CCCC [2-hexyne] + CCCCCCCCCCCCCCCCCCC(CCCCCCCCCCCCCCCCCC)CCCCC(CCCCCCCCCCCCCCCCCC)CCCCCCCCCCCCCCCCCC here.
0.378

Give reported activity coefficient value for C1CCCCCCCCC1 [cyclodecane] + CCCCCCCCCCCCCCCCCCC(CCCCCCCCCCCCCCCCCC)CCCCC(CCCCCCCCCCCCCCCCCC)CCCCCCCCCCCCCCCCCC
0.269

Please report activity coefficient for the following compound: CCCCCCCCCCCC [dodecane] + CCCCCCCCCCCCCCCCCCC(CCCCCCCCCCCCCCCCCC)CCCCC(CCCCCCCCCCCCCCCCCC)CCCCCCCCCCCCCCCCCC
0.456

---

Assay: activity coefficient (dimensionless); of the first substance listed, at infinite dilution; xn = mol fraction of the nth substance listed
Details: 388.15 K; 101 kPa; Liquid; Chromatography; x1 = 0
Consider the cut-off 0.4. If the recorded activity coefficient is strictly smaller, the label is Criterion met; if not, the label is Criterion not met.

Solved cases (5 shown):
Could you please tell me whether activity coefficient recorded for CCCCCC [hexane] + CCCCCCCCCCCCCCCCCCC(CCCCCCCCCCCCCCCCCC)CCCCC(CCCCCCCCCCCCCCCCCC)CCCCCCCCCCCCCCCCCC is less than 0.4?
Criterion met

Lab note: confirm whether the reported activity coefficient for this compound is below 0.4, equality not counting. compound: C1CCCCC1 [cyclohexane] + CCCCCCCCCCCCCCCCCCC(CCCCCCCCCCCCCCCCCC)CCCCC(CCCCCCCCCCCCCCCCCC)CCCCCCCCCCCCCCCCCC
Criterion met

Strictly below 0.4 in activity coefficient? C[C@@H]1CCCC[C@@H]1C [cis-1,2-dimethylcyclohexane] + CCCCCCCCCCCCCCCCCCC(CCCCCCCCCCCCCCCCCC)CCCCC(CCCCCCCCCCCCCCCCCC)CCCCCCCCCCCCCCCCCC
Criterion met

Just wondering, is activity coefficient of C=CCCCCCCCCC [1-undecene] + CCCCCCCCCCCCCCCCCCC(CCCCCCCCCCCCCCCCCC)CCCCC(CCCCCCCCCCCCCCCCCC)CCCCCCCCCCCCCCCCCC below 0.4?
Criterion not met

Threshold test, activity coefficient < 0.4: C1CC[C@H]2CCCC[C@@H]2C1 [trans-decahydronaphthalene] + CCCCCCCCCCCCCCCCCCC(CCCCCCCCCCCCCCCCCC)CCCCC(CCCCCCCCCCCCCCCCCC)CCCCCCCCCCCCCCCCCC
Criterion met

Others:
Determine if C=CCCCCCCCCCC [1-dodecene] + CCCCCCCCCCCCCCCCCCC(CCCCCCCCCCCCCCCCCC)CCCCC(CCCCCCCCCCCCCCCCCC)CCCCCCCCCCCCCCCCCC shows activity coefficient strictly lower than 0.4.
Criterion not met

Please let me know if C#CCCCC [1-hexyne] + CCCCCCCCCCCCCCCCCCC(CCCCCCCCCCCCCCCCCC)CCCCC(CCCCCCCCCCCCCCCCCC)CCCCCCCCCCCCCCCCCC shows activity coefficient below 0.4.
Criterion met
